test: log P determination by HPLC on reversed-phase columns (C 18), analogously to OECD Guideline 117; type: physicochemical; conditions: LC-MS in the acidic range, pH 2.7, 0.1% aqueous formic acid / acetonitrile, HPLC reversed-phase C 18
measured.endpoint: logP (HCOOH)
Returns: the value as a bare number; no unit string appended.

input: Query: logP (HCOOH); subject: COCCCn1c(=O)n(C)n(-c2cc([S+]([O-])CC(F)(F)F)c(C)cc2F)c1=O (centres unmarked)
output: 1.97

input: Please do the same for C=CCn1c(=O)n(-c2cc(SCC(F)(F)F)c(C)cc2F)c(=O)n1C as well.
output: 2.91

input: Please do the same for Cc1cc(F)c(N2C(=O)C(=O)N(CC(C)C)C2=S)cc1SCC(F)(F)F as well.
output: 4.62

input: Please do the same for CCCCN1CC(=O)N(c2cc(SCC(F)(F)F)c(C)cc2F)C1=O as well.
output: 3.39

input: Please do the same for Cc1ccc(-n2c(=O)n(C3CC3)c(=O)n2C)cc1[S+]([O-])CC(F)(F)F (centres unmarked) as well.
output: 1.89

input: Please do the same for CCn1c(=O)n(-c2cc(SCC(F)(F)F)c(C)cc2F)n(C(C)(C)C)c1=O as well.
output: 4.19

input: Please do the same for Cc1ccc(-n2c(=O)n(C)c(=O)n2CC2CC2)cc1SCC(F)(F)F as well.
output: 3.34

input: Please do the same for Cc1cc(F)c(N2C(=O)N(C)C(=O)C2C)cc1SCC(F)(F)F (centres unmarked) as well.
output: 2.92

input: Please do the same for Cc1cc(F)c(N2C(=O)C3(CCC3)C(=O)N2C)cc1[S+]([O-])CC(F)(F)F (centres unmarked) as well.
output: 1.99

input: Please do the same for COc1ccc(-n2c(=O)n(C3CC3)c(=O)n2C)cc1[S+]([O-])CC(F)(F)F (centres unmarked) as well.
output: 1.77

input: Please do the same for Cc1cc(F)c(N2C(=O)N(C3CC3)C(=O)C2C)cc1[S+]([O-])CC(F)(F)F (centres unmarked) as well.
output: 2.15

input: Please do the same for C=CCn1c(=O)n(C2CC2)c(=O)n1-c1ccc(C)c(SCC(F)(F)F)c1 as well.
output: 3.37

input: Please do the same for COCCCn1c(=O)n(C)n(-c2cc(SCC(F)(F)F)c(C)cc2F)c1=O as well.
output: 2.96

input: Please do the same for CCn1c(=O)n(C)n(-c2ccc(C)c(SCC(F)(F)F)c2)c1=O as well.
output: 3.00

input: Please do the same for C=CCn1c(=O)n(C2CC2)c(=O)n1-c1cc([S+]([O-])CC(F)(F)F)c(C)cc1F (centres unmarked) as well.
output: 2.32

input: Please do the same for Cc1cc(F)c(N2C(=O)CSC2=NCC(C)C)cc1SCC(F)(F)F as well.
output: 4.33

input: Please do the same for Cc1cc(F)c(-n2c(=O)n(-c3ccccc3)c(=O)n2C)cc1SCC(F)(F)F as well.
output: 3.42
